# Tested on: mTNF-α secretion from LPS-stimulated RAW264.7 monocytes
# measurement description: LPS induced mTNF-α release from RAW264.7 cells (ELISA)
# Format: cell-based
# assay context: Mus musculus; Test Con. 10 μM; LPS 10 ng/ml, 4 hours; RAW264.7 cells; read-out: mTNF-α inhibition (%) mean
Catalogue of molecules with associated inhibition at 10 µM
Please state the figure in %; there is no need to write the unit.

substance smiles: C=CC(=O)N1CCCc2cccc(S(=O)(=O)Nc3ccc(F)cc3F)c21
inhibition at 10 µM (%): 94.7

substance smiles: C=CC(=O)N(c1ccc(F)cc1Cl)S(=O)(=O)c1ccccc1[N+](=O)[O-]
inhibition at 10 µM (%): 45.7

substance smiles: C=CC(=O)N(c1ccc(F)cc1Cl)S(=O)(=O)N1CCCC1
inhibition at 10 µM (%): 86.1

substance smiles: C=CC(=O)N1CCCc2cccc(S(=O)(=O)Nc3ccc(F)cc3Cl)c21
inhibition at 10 µM (%): 100

Moving on to another molecule below.
Fill in the recorded inhibition at 10 µM for this molecule, with mTNF-α secretion from LPS-stimulated RAW264.7 monocytes as test system: C=CC(=O)c1ccccc1S(=O)(=O)N(C)c1ccccc1
100
